- ASSAY_SYSTEM: Human HER3, endogenous, on human cancer cell lines (SK-Br-3, MCF7, BT-474) (human, UniProt P21860 20-1342)
- Sequence (P21860 20-1342): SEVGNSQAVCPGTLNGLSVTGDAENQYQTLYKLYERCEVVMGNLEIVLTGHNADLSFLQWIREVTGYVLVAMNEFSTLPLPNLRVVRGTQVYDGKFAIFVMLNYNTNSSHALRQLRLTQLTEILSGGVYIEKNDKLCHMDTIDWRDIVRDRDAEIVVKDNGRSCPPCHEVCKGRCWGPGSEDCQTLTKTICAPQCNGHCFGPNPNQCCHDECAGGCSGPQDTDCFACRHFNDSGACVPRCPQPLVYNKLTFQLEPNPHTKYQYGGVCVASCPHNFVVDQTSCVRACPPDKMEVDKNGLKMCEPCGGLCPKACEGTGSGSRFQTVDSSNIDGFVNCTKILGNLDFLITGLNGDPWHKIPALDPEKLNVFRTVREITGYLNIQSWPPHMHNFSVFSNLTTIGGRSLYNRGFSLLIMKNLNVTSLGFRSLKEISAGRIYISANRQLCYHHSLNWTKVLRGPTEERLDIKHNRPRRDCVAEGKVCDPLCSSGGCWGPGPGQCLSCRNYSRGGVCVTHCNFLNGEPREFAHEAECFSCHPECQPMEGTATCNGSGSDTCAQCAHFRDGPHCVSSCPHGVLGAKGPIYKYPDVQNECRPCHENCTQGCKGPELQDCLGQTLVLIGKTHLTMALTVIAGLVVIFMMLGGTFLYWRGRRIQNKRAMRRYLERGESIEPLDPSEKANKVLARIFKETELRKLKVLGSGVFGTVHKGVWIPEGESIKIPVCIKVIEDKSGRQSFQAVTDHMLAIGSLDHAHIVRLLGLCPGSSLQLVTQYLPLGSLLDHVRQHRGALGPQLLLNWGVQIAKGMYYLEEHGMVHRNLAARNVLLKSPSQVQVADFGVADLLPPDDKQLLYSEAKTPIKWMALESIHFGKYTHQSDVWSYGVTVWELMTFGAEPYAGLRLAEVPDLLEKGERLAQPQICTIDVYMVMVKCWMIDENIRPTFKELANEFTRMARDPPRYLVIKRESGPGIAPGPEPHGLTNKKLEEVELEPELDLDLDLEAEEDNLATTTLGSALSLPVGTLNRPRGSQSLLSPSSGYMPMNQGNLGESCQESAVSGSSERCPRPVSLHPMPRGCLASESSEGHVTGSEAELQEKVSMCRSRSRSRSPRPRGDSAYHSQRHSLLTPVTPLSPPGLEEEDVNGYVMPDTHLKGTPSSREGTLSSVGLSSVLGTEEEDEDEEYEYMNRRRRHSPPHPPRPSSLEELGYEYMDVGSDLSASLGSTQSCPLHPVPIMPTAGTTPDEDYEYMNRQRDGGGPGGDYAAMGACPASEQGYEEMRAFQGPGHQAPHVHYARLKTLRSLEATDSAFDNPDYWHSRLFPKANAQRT
- ASSAY_PROTOCOL: cell-based or functional assay
MEASURE: SK-Br-3 pAkt (S473) IC50 (pM)
Could you give me the number in pM? Just the number is fine.

Examples with answers:
[
  {
    "BINDER": "MOR13752 (antibody, human IgG1, kappa, V domains shown, tested as IgG) VH: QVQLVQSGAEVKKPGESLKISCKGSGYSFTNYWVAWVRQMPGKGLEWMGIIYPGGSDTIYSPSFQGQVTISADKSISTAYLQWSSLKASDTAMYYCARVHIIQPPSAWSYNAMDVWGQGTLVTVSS VL: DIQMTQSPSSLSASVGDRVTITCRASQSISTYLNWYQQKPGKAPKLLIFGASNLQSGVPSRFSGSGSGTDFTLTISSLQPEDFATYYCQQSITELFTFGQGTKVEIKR",
    "SK-Br-3 pAkt (S473) IC50, pM": 734
  },
  {
    "BINDER": "MOR13766 (antibody, human IgG1, kappa, V domains shown, tested as IgG) VH: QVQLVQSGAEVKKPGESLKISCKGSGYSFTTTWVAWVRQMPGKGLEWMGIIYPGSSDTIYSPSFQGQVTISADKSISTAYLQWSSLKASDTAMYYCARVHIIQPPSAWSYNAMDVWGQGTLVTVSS VL: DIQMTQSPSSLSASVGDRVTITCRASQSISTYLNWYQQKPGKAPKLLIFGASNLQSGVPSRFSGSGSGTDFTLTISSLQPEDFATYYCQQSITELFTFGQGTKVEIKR",
    "SK-Br-3 pAkt (S473) IC50, pM": 89
  },
  {
    "BINDER": "MOR12616 (antibody, human IgG1, kappa, V domains shown, tested as IgG) VH: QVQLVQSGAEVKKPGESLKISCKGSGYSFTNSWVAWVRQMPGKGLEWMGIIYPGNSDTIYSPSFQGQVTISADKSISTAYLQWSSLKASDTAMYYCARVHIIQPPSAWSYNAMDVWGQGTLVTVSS VL: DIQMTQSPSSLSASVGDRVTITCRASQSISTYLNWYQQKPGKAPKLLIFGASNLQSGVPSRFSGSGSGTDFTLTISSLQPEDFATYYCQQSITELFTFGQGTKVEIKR",
    "SK-Br-3 pAkt (S473) IC50, pM": 88
  }
]

# ---- query binder ----
Lookup: For the binder shown here, MOR13870 (antibody, human IgG1, kappa, V domains shown, tested as IgG) VH: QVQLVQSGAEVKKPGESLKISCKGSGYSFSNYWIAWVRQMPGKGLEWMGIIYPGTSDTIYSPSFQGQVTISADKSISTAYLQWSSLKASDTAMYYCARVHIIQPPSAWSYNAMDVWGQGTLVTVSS VL: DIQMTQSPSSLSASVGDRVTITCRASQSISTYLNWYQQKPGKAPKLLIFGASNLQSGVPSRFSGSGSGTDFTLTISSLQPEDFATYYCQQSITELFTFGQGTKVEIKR , give the reported SK-Br-3 pAkt (S473) IC50.
Found: 76

src = patent US20130273029A1
